- assay.procedure: Pharmacokinetic study in nitroglycerin-induced migraine model rats (plasma, HPLC-MS/MS)
- Format: in vivo, rat
- study.conditions: female, Sprague-Dawley, rat, in vivo, po; Single: PA alone 372.4 mg/kg intragastric, migraine model rats, plasma; read-out: t1/2z (converted)
observation.type: half-life (h)
One number for each entry, in h.

*Q* half-life for OCc1ccc(O[C@@H]2O[C@H](CO)[C@@H](O)[C@H](O)[C@H]2O)cc1 [GAS, gastrodin] ?
*A* 1.02

###

- assay.procedure: Pharmacokinetic study in nitroglycerin-induced migraine model rats (plasma, HPLC-MS/MS)
- Format: in vivo, rat
- study.conditions: female, Sprague-Dawley, rat, in vivo, po; Single: PA alone 372.4 mg/kg intragastric, migraine model rats, plasma; read-out: MRT (0 − ∞)
observation.type: MRT inf (h)
Give bare numbers, in h.

*Q* Quick one: MRT inf for OCc1ccc(O[C@@H]2O[C@H](CO)[C@@H](O)[C@H](O)[C@H]2O)cc1 ?
*A* 2.15

###

- assay.procedure: Pharmacokinetic study in nitroglycerin-induced migraine model rats (plasma, HPLC-MS/MS)
- Assay type: in vivo, rat
- study.conditions: female, Sprague-Dawley, rat, in vivo, po, 40 mg/kg; read-out: CL z/F (converted)
observation.type: CL/F (L/h/kg)
One number for each entry, in L/h/kg.

INSERT INTO results (compound_structure_string, observation_type, test_result) VALUES
  ('CC[C@H]1CN2CC[C@@]3(C(=O)Nc4ccccc43)[C@@H]2C[C@@H]1/C(=C\OC)C(=O)OC', 'CL/F', 89);

Read the next record carefully.
*Q* Which CL/F is reported for this compound? CC[C@H]1CN2CC[C@]3(C(=O)Nc4ccccc43)[C@@H]2C[C@@H]1/C(=C\OC)C(=O)OC
*A* 332

###

Assignment: determine reported half-life for the given molecules.
- assay.procedure: Pharmacokinetic study in nitroglycerin-induced migraine model rats (plasma, HPLC-MS/MS)
- Type: in vivo, rat
- study.conditions: female, Sprague-Dawley, rat, in vivo, po, 40 mg/kg; read-out: t1/2z (converted)

INSERT INTO measurements (molecule, test_result) VALUES
  ('CC[C@H]1CN2CC[C@]3(C(=O)Nc4ccccc43)[C@@H]2C[C@@H]1/C(=C\OC)C(=O)OC [RHY, rhynchophylline]', '1.63 h');

*Q* Please report the recorded half-life for CC[C@H]1CN2CC[C@@]3(C(=O)Nc4ccccc43)[C@@H]2C[C@@H]1/C(=C\OC)C(=O)OC [ISO, isorhynchophylline] .
*A* 1.9 h

###

- assay.procedure: Pharmacokinetic study in nitroglycerin-induced migraine model rats (plasma, HPLC-MS/MS)
- Assay type: in vivo, rat
- study.conditions: female, Sprague-Dawley, rat, in vivo, po, 40 mg/kg; read-out: MRT (0 − ∞)
- Description: Healthy Sprague-Dawley (SD) female rats weighing 180 g ± 20 were provided by Hunan SJA Laboratory Animal Co., Ltd. (animal license number: SCXK (Xiang) 2016-0002). Rats underwent adaptive feeding for one week and were fasted for 12 h. Rats had open access to water throughout the study. For pharmacokinetic analysis, 18 SD rats were randomly divided into 3 groups and 0.4 mL of nitroglycerin (dosage: 10 mg/kg) was injected into the forehead to establish the migraine model. […]
observation.type: MRT inf (h)
Give bare numbers, in h.

INSERT INTO assay_data (compound, unit_abbreviation, test_result) VALUES
  ('CC[C@H]1CN2CC[C@]3(C(=O)Nc4ccccc43)[C@@H]2C[C@@H]1/C(=C\OC)C(=O)OC [RHY, rhynchophylline]', 'h', 3.21);

Then this compound:
*Q* Sample CC[C@H]1CN2CC[C@@]3(C(=O)Nc4ccccc43)[C@@H]2C[C@@H]1/C(=C\OC)C(=O)OC [ISO, isorhynchophylline] — what was its MRT inf?
*A* 1.77

###

- assay.procedure: Pharmacokinetic study in nitroglycerin-induced migraine model rats (plasma, HPLC-MS/MS)
- Type: in vivo, rat
- study.conditions: female, Sprague-Dawley, rat, in vivo, po; Single: PA alone 372.4 mg/kg intragastric, migraine model rats, plasma; read-out: MRT (0 − t)
observation.type: MRT last
Reply with the number and its unit after it.

*Q* Value lookup for MRT last; key = OCc1ccc(O[C@@H]2O[C@H](CO)[C@@H](O)[C@H](O)[C@H]2O)cc1 [GAS, gastrodin]
*A* 2.14 h

###

- assay.procedure: Pharmacokinetic study in nitroglycerin-induced migraine model rats (plasma, HPLC-MS/MS)
- Assay type: in vivo, rat
- study.conditions: female, Sprague-Dawley, rat, in vivo, po; Single: PA alone 372.4 mg/kg intragastric, migraine model rats, plasma; read-out: V z/F
observation.type: Vd/F (L/kg)
Answers are plain numbers, in L/kg.

*Q* // returns reported Vd/F for input OCc1ccc(O[C@@H]2O[C@H](CO)[C@@H](O)[C@H](O)[C@H]2O)cc1
*A* 56.6

###

- assay.procedure: Pharmacokinetic study in nitroglycerin-induced migraine model rats (plasma, HPLC-MS/MS)
- Format: in vivo, rat
- study.conditions: female, Sprague-Dawley, rat, in vivo, po; Single: PA alone 372.4 mg/kg intragastric, migraine model rats, plasma; read-out: CL z/F (converted)
- Description: Healthy Sprague-Dawley (SD) female rats weighing 180 g ± 20 were provided by Hunan SJA Laboratory Animal Co., Ltd. (animal license number: SCXK (Xiang) 2016-0002). Rats underwent adaptive feeding for one week and were fasted for 12 h. Rats had open access to water throughout the study. For pharmacokinetic analysis, 18 SD rats were randomly divided into 3 groups and 0.4 mL of nitroglycerin (dosage: 10 mg/kg) was injected into the forehead to establish the migraine model. […]
observation.type: CL/F

*Q* Returns the measured CL/F for the input compound. Input: OCc1ccc(O[C@@H]2O[C@H](CO)[C@@H](O)[C@H](O)[C@H]2O)cc1
*A* 640 mL/min/kg
